Target: rNav1.2 sodium channels (HEK-293 cells) (Rattus norvegicus)
Sequence (P04775 whole entry): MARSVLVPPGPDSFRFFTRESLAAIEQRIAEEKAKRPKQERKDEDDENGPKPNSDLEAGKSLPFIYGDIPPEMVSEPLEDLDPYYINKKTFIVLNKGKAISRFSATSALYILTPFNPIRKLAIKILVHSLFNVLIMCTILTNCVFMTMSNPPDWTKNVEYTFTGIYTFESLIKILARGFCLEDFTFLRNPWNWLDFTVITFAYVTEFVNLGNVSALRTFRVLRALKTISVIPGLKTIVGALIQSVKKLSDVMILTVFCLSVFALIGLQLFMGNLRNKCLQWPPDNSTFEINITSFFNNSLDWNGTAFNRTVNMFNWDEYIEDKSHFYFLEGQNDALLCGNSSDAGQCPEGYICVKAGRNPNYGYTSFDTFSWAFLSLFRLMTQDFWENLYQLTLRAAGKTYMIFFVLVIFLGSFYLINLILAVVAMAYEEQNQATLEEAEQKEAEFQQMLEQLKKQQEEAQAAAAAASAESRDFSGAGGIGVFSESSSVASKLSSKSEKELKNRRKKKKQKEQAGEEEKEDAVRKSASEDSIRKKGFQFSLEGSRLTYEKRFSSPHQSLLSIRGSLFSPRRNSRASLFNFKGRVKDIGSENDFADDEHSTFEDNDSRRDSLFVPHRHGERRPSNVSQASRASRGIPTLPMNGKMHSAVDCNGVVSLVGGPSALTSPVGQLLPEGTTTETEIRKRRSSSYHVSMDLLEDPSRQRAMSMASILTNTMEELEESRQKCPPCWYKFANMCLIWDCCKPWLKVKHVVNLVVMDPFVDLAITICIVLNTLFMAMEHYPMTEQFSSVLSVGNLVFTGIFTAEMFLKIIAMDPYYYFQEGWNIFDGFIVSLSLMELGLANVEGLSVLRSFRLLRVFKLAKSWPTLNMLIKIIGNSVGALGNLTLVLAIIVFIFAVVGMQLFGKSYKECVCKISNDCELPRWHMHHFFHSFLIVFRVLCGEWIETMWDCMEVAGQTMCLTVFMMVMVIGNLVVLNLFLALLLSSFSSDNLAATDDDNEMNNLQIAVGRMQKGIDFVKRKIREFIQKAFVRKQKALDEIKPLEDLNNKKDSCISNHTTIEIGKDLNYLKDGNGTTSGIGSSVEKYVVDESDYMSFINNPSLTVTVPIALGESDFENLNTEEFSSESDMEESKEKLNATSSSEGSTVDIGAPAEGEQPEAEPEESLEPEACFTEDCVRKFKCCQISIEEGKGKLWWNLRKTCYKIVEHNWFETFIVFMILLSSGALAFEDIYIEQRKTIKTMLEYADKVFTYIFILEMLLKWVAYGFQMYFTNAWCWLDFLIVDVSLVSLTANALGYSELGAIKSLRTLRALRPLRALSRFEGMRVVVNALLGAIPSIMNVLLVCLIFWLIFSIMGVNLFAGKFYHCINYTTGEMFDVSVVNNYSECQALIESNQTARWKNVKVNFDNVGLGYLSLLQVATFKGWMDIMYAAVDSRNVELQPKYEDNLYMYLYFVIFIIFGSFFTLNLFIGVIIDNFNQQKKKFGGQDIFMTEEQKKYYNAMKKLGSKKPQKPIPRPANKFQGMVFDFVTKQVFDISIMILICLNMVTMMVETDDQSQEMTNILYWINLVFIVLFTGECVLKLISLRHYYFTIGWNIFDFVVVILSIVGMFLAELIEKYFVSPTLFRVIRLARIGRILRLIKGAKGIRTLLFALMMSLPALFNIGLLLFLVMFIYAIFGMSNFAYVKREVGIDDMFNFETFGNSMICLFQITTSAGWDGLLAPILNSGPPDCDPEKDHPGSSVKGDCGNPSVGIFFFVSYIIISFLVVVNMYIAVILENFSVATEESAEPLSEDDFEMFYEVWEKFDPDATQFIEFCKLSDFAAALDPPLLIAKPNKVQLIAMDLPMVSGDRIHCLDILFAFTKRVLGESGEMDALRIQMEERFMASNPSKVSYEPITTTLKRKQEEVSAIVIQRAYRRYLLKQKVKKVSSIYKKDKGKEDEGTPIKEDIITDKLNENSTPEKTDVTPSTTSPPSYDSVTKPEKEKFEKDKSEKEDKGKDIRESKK
Assay: 5 Hz train protocol, QPatch automated patch-clamp
Assay type: cell-based
Conditions: HEK293; 30 μM; −90 mV holding potential, 5 Hz train; read-out: Inh (inhibited fraction)
parameter: inhibition at 30 µM (%)
Give just the numeric value; % need not be written.

Cc1ccc(-c2nc(C)c(CN3CCN(C(c4ccccc4)c4ccccc4)CC3)[nH]2)cc1 [LIF, Lifarizine]
78
CN(C)CCCN1c2ccccc2Sc2ccc(Cl)cc21 [CPM, Chlorpromazine]
41
Nc1nc2ccc(OC(F)(F)F)cc2s1 [RIL, Riluzole]
27

// query # get_value(readout='inhibition at 30 µM', item= CCc1nn(CCCN2CCN(c3cccc(Cl)c3)CC2)c(=O)n1CCOc1ccccc1 [NFZ, Nefazodone] )
// result 39

// query # get_value(readout='inhibition at 30 µM', item= CN(C)CCC=C1c2ccccc2CCc2ccccc21 [AMI, Amitriptyline] )
// result 56
